- system.under.test: ARH3 (Homo sapiens)
- Sequence (Q9NX46 whole entry): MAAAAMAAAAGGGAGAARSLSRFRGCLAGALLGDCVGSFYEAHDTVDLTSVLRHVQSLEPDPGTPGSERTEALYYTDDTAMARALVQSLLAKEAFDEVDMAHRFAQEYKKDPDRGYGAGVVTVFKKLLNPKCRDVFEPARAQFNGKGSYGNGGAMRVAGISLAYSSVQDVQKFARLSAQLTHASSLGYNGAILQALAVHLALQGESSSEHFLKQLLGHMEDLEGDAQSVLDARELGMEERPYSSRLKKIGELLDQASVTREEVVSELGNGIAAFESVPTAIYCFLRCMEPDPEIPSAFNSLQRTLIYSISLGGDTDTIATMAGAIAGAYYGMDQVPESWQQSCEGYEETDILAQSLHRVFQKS
- study.conditions: 10 μM peptide, 0.5 μM hydrolase, 60 min, 30 C, 50 mM TrisHCl pH 8, 200 mM NaCl, 10 mM MgCl2, 1 mM DTT, 0.2 μM human NUDT5; AMP-Glo luminescence, normalized to NudT16
Starred links: 1 amine or outer side, 2 acyl side, 3 side chain; linkers in the order of their positions; H or OH if unused. Non-standard residues stand in square brackets, D forms with d. Residues, ends and D or L forms follow the SMILES beside them. X2 = Nc1ncnc2c1ncn2[C@@H]1O[C@H](COP(=O)(O)OP(=O)(O)OC[C@H]2O[C@@H](n3nncc3C[C@H](N[*:1])C(=O)[*:2])[C@H](O)[C@@H]2O)[C@@H](O)[C@H]1O
measured.parameter: ARH3-mediated hydrolysis of the N-glycosidic linkage

Endpoint output: ARH3-mediated hydrolysis of the N-glycosidic linkage of CC(C)C[C@H](NC(=O)CNC(=O)[C@H](C)NC(=O)CNC(=O)[C@H](Cc1cn([C@@H]2O[C@H](COP(=O)(O)OP(=O)(O)OC[C@H]3O[C@@H](n4cnc5c(N)ncnc54)[C@H](O)[C@@H]3O)[C@@H](O)[C@H]2O)nn1)NC(=O)[C@H](Cc1ccccc1)NC(=O)[C@@H](N)[C@@H](C)O)C(=O)N[C@H](C(=O)N[C@H](C(=O)N1CCC[C@H]1C(=O)N[C@H](C(=O)N[C@@H](CC(=O)O)C(=O)N[C@@H](CCCCN)C(=O)O)C(C)C)C(C)C)C(C)C [compound 23] . Value?
unaffected

Next molecule up: CC(C)C[C@H](NC(=O)CNC(=O)[C@H](C)NC(=O)CNC(=O)[C@H](Cc1cnnn1[C@@H]1O[C@H](COP(=O)(O)OP(=O)(O)OC[C@H]2O[C@@H](n3cnc4c(N)ncnc43)[C@H](O)[C@@H]2O)[C@@H](O)[C@H]1O)NC(=O)[C@H](Cc1ccccc1)NC(=O)[C@@H](N)[C@@H](C)O)C(=O)N[C@H](C(=O)N[C@H](C(=O)N1CCC[C@H]1C(=O)N[C@H](C(=O)N[C@@H](CC(=O)O)C(=O)N[C@@H](CCCCN)C(=O)O)C(C)C)C(C)C)C(C)C [compound 24] (H-TF[X2]GAGLVVPVDK-OH)
unaffected

Attribution: paper PMC10407933
